Numbers sourced from PubChem BioAssay.

- procedure summary: inhibitors of mutant huntingtin aggregation, primary screen, imaging, exon1htt(103Q)mCFP cells, high-content imaging (AID 483);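 further: compound exposure lasted 3 days before fixation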
- condition details: exon1htt(103Q)mCFP cell line, aggregate imaging, at 2 µM; stronger effect = higher value
property name: inhibition of aggregation (%)
Numbers only, in %.

Take a look at these entries with their results.
CCN(CC)S(=O)(=O)c1cccc2c(N(C)C)cccc12    14.8
CCC1=C(C(=O)OC)C(c2cc(OC)ccc2OC)C(C#N)=C(N)O1 (stereo not given)    6.8
COc1ccc2cnn(-c3ccccc3C)c(=O)c2c1OC    1.9
OCCNc1ncnc2c1c(-c1ccccc1)c(-c1ccccc1)n2Cc1ccco1    1.6

// next entry
Tell us which inhibition of aggregation value is on record for C(=C\c1ccccc1)/CN1CCN(C(c2ccccc2)c2ccccc2)CC1
-21.5

----------
For each entry below, report its z-score value.
- procedure summary: DUSP6 inhibitors restoring Erk phosphorylation by chemical complementation, primary imaging in DUSP6-transfected HeLa (AID 609)
- condition details: HeLa MKP-3 transfected, phospho-Erk imaging KS statistic; measured here: cell density z-score; at 10 µM; cells stimulated with TPA for 15 min

Take a look at these entries with their results.
CCOC(=O)c1[nH]c2ccc(Br)cc2c1NC(=O)CNC    -0.195
CCC(C(=O)OCCN(CC)CC)c1ccccc1 (centres undefined)    1.14
CCCCNC(=O)c1cc2n(n1)C(C(F)(F)F)CC(c1ccccc1)N2 (centres undefined)    -0.754

// next entry
Tell us which z-score value is on record for Cc1ccc(S(=O)(=O)NC(=O)NN2CCCCCC2)cc1
0.424

----------
For each entry below, report its NADPH fluorescence slope value.
- measurement target: Voltage-gated potassium channel subunit beta-2 (Rattus norvegicus)
- procedure summary: KvBeta positive modulators, primary screen, biochemical, NADPH fluorescence (AID 623);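 further: fluorescence intensity change per second fitted from 20 to 320 s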
- condition details: Recombinant KvBeta, NADPH fluorescence decrease slope, 10 min; at 10 µM; stronger effect = lower value
Give bare numbers.

Cc1nc2ccccn2c(=O)c1CCN1CCC(C(=O)c2ccc(F)cc2)CC1    1.2e-06
CC(Cc1ccc(O)c(O)c1)C(C)Cc1ccc(O)c(O)c1 (centres undefined)    -8.3e-05
O=C1CC(c2ccccc2)NC(=O)N1 (centres undefined)    -0.000279
Cc1ccc(C)c(OCCCC(C)(C)C(=O)O)c1    -3.5e-05
CCOC(=O)c1c(N)sc2c1CCC1C(=O)N(C3CCCCC3)C(=O)C21 (centres undefined)    -3.1e-06
CC1CN(C2CCN(S(=O)(=O)c3ccccc3)CC2)CC(C)O1 (centres undefined)    -2.3e-05

// each molecule listed below needs its NADPH fluorescence slope
1. CCOC(=O)c1c(C)n(C)c2ccc(O)c(S(=O)(=O)c3ccccc3)c12
2. CC(C)N=c1cc2n(-c3ccc(Cl)cc3)c3ccccc3nc-2cc1Nc1ccc(Cl)cc1
3. Cc1cc(=O)oc(C)c1C(=O)NCCNC(=O)c1c(C)cc(=O)oc1C
4. O=C(O)c1cc(-c2ccccc2)nc2ccccc12
5. COc1ccccc1NC(=O)C1=C(C)NC(SCC(=O)c2ccc(C)cc2)=C(C#N)C1c1ccco1 (centres undefined)
6. O=c1/c(=C\c2cccn2-c2ccccc2)sc2nc3ccccc3n12
7. CCN(CC)CCNc1nc(-c2ccco2)c2c(c1C#N)CC(C)(C)OC2
8. COc1cc(C2CC(C(F)(F)F)n3ncc(C(=O)O)c3N2)cc(OC)c1OC (centres undefined)

1. -0.000154
2. -1.6e-05
3. -3.6e-05
4. -5.4e-05
5. -7.1e-05
6. 8.6e-06
7. 1.9e-06
8. -9.9e-05

----------
For each entry below, report its inhibition value.
- procedure summary: inhibitors of Chlamydomonas gravitaxis, primary screen, whole organism, Chlamydomonas reinhardtii, WT vs cilia-less mutant, absorbance, 96-well (AID 463189);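 further: 0% = wild type cc124 cells in DMSO and 100% = ciliumless bld1 mutant cells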
- condition details: OD600 absorbance, 2 days, at 10 µM, stronger effect = higher value
Numbers only, in %.

Nc1c(C(=O)NCC2CCCO2)c2nc3ccccc3nc2n1/N=C/c1ccncc1 (stereo not drawn)    -25.5
COc1cccc(OCCN2CCN(c3ncnc4c3cnn4-c3ccccc3)CC2)c1    48.3
CC(C)CNC(=O)c1c(N)n(/N=C/c2ccccn2)c2nc3ccccc3nc12    31.2
COCCNc1cc(C)c(C#N)c2nc3ccccc3n12    -12.3
O=CN1CCN(C(=O)CN2C(=O)c3ccccc3C2=O)CC1    15.5
CC[C@H](C)C(=O)O[C@H]1C[C@@H](C)C=C2C=C[C@H](C)[C@H](CC[C@@H]3C[C@@H](O)CC(=O)O3)[C@H]21    14.3
COC(=O)CSC1=C(C#N)C(=O)NC2(CCCCC2)S1    -6.72

// next entry
Tell us which inhibition value is on record for Cc1ccc(-c2ccc(/C=N/c3ncn[nH]3)o2)cc1Cl
0.03

----------
For each entry below, report its inhibition value.
- procedure summary: inhibitors of E-selectin induction by TNFa, primary screen, imaging, HUVEC, immunofluorescence, MLSMR starter and 10KST1 sets (AID 487);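 further: signal is fraction of cell area covered by stained E-selectin grains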
- condition details: HUVEC TNFalpha-induced E-selectin immunofluorescence imaging, at 2 µM; stronger effect = higher value
Numbers only, in %.

// each compound listed below needs its inhibition
1. CSc1nc2sc3c(c2c(=O)n1C1CCCCC1)CCN(C)C3
2. Cc1c(C(=O)O)c(=S)sn1CCOc1ccccc1
3. OC1CN=C2Sc3ccccc3N2C1 (stereo not given)
4. CCCc1nn(C)c2c1C(c1cccnc1)C(C#N)=C(N)O2 (stereo not given)
5. CCSc1nnc(N(CCC(=O)O)CCC(=O)O)s1

1: -69.6; 2: 16.3; 3: -227; 4: -50.3; 5: -116

----------
- procedure summary: inhibitors of TNFa-induced NFkB p65 translocation, primary screen, imaging, HUVEC, MLSMR starter and 10KST1 sets (AID 438);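 further: compound added about 3h40 before a 20 min TNFalpha stimulation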
- condition details: HUVEC TNFa-induced p65 nuclear translocation; measured here: nuclei count (cytotoxicity indicator), at 2.08 µM
Each entry belongs to exactly one class, chosen by where its cell count falls: lower range = under 500, middle range = from 500 up to 600, upper range = 600 and over

The following compounds have reported results that may help.
Cc1ccc(C2/C(=C(/O)c3cnn(-c4ccccc4)c3C)C(=O)C(=O)N2CCN2CCOCC2)o1 (configuration not stated)    middle range
Cc1ccc(Cn2ncc3c(N4CCN(c5ccc(C)cc5)CC4)ncnc32)cc1    middle range
Cc1c(-c2cccs2)[n+](=O)c2c(n1[O-])CCCC2    lower range
c1ccc(OCc2nn3c(-c4ccco4)nnc3s2)cc1    upper range
COCCn1c(N)c(C(=O)NCC2CCCO2)c2nc3ccccc3nc21 (configuration not stated)    middle range

Which cell count category applies to COC(=O)C1=C(N)Oc2cc(C)oc(=O)c2C1c1ccncc1 (configuration not stated) here?
lower range

Which cell count category applies to Cc1nc(NCCN)c(C#N)c2c1COC(C)(C)C2 here?
upper range

----------
- measurement target: Dual specificity protein phosphatase 6 (Homo sapiens) (UniProt Q16828)
- Sequence (Q16828 whole entry, looked up): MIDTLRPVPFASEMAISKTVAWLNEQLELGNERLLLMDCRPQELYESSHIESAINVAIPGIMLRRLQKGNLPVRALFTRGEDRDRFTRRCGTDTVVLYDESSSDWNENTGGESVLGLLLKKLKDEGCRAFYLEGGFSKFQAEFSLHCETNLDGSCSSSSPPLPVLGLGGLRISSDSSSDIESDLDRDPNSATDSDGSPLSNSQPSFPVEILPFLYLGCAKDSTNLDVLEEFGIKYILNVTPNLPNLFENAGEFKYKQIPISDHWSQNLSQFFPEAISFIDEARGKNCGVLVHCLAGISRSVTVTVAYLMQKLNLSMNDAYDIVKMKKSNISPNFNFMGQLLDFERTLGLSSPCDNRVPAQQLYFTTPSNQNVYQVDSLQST
- procedure summary: DUSP6 inhibitors restoring Erk phosphorylation by chemical complementation, primary imaging in DUSP6-transfected HeLa (AID 609);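 on inhibition: phospho-Erk level distribution per well compared with pooled transfected vehicle control wells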
- condition details: HeLa MKP-3 transfected, phospho-Erk imaging KS statistic; at 10 µM; stronger effect = higher value; cells stimulated with TPA for 15 min
For each entry below, report its inhibition value.
Answers are plain numbers, in %.

Cn1ncc2c(Nc3ccccc3Br)ncnc21    14
CCc1nnc(NC(=O)CSc2nc(C)c3c(c2C#N)CCCC3)s1    -0.674
Cc1cc(COc2ccccc2OCCN2CCN(C)CC2)no1    5.95
N#Cc1c(N)sc(=S)c2c1CCCCC2    -0.608

// next entry
Tell us which inhibition value is on record for C/C=C(/C(=C/C)c1ccc(O)cc1)c1ccc(O)cc1
13.3

----------
- procedure summary: inhibitors of TNFa-induced NFkB p65 translocation, primary screen, imaging, HUVEC, MLSMR starter and 10KST1 sets (AID 438);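 further: compound added about 3h40 before a 20 min TNFalpha stimulation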
- condition details: HUVEC TNFa-induced p65 nuclear translocation; measured here: nuclei count (cytotoxicity indicator), at 2.08 µM
Each entry belongs to exactly one class, chosen by where its cell count falls: Low (below 500), Mid (500 to below 600), High (600 or more)

The following compounds have reported results that may help.
C[C@@H]1CCC[C@H](C)N1NC(=O)c1ccc(Cl)c(S(N)(=O)=O)c1    High
CCN(CC)C(=O)c1sc2nc(-c3cccs3)cc(-c3cccs3)c2c1N    Low
COCc1[nH]nc2c1C(c1cccc(OC)c1)C(C#N)=C(N)O2 (configuration not stated)    High
O=C(Nc1nc(=O)c2ccccc2s1)c1ccccc1    High
NC(=O)CSc1nc(N)c2c3c(sc2n1)CCCCC3    High

Which cell count category applies to CCC(c1c(C)n(C)n(-c2ccccc2)c1=O)c1c(C)n(C)n(-c2ccccc2)c1=O here?
Mid

Which cell count category applies to Nc1nonc1C(=O)NCCN=Cc1cc(Cc2ccccc2)cc(Br)c1O here?
Mid

Which cell count category applies to Nc1nc(N)c2nc(-c3ccccc3)c(N)nc2n1 here?
High

Which cell count category applies to CC(C(=O)O)c1ccc(-c2ccccc2)c(F)c1 (configuration not stated) here?
Mid

Which cell count category applies to O=C(O)CC(NCc1ccco1)C(=O)OCC1CCCO1 (configuration not stated) here?
Mid

Which cell count category applies to CC1(C)NC(=O)N(CC(O)Cn2nnc3ccccc32)C1=O (configuration not stated) here?
Low

Which cell count category applies to Cc1cc(C)n(C(=O)CNC(=O)CCc2ccccc2)n1 here?
Mid
